Overview of reported growth inhibition across a group of compounds:
# Experimental protocol: NCI Yeast Anticancer Drug Screen. Data for the sgs1 mgt1 strain (AID 161);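 note: 0% = growth of cultures given vehicle only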
# Experimental parameters: S. cerevisiae sgs1 mgt1 strain, at 50.0 µM, stronger effect = higher value
The panel holds about 79,000 compounds, 15% with a hit somewhere; the sample as a whole holds those more often. Where a SMILES comes first, the peptide text is derived from it. Bridges are numbered along the chain shown (N, C = ends). [ ]: non-standard residue; d: D form. The star is where a group is joined. Cbz = O=C(OCc1ccccc1)*; Aib = CC(C)(N)C(=O)O; OBn = c1ccc(CO*)cc1; βAla = NCCC(=O)O

Compound | growth inhibition [%]
O=C(O)Cc1c(-c2ccc([N+](=O)[O-])cc2)c(=O)oc2cc(O)ccc12 | 9
O=C(O)/C(=C/c1ccccc1[N+](=O)[O-])c1cccs1 | 22.6
O=[N+]([O-])c1ccccc1N=C=S | -4.05
c1ccc(-c2ccccc2N=C2N=NN=N2)cc1 | 2.2
O=C(O)C1=C(O)CCN=C1 | 11
N#Cc1ccccc1Br | 21.1
CCC(Nc1ncnc2nc[nH]c12)C(=O)O (stereo not given) | -17.4
N#Cc1c(-c2ccco2)cc(-c2ccc(N)cc2)[nH]c1=O | 17.7
O=C(CNc1ccc(Cl)cc1Cl)NC1C=Cc2ccc(S(=O)(=O)Nc3ccc(Cl)cc3Cl)cc2C1=O (stereo not given) | 44
Cc1c2c(n3c(nc4ccccc43)c1C#N)N(c1ccc(Cl)cc1)CC2 | -10.8
O=S(=O)(O/C(=C(\OS(=O)(=O)C(F)(F)F)c1ccccc1)c1ccccc1)C(F)(F)F | -21.1
COc1cc2c(cc1O)CN1Cc3c(ccc(OC)c3O)C2C1 (stereo not given) | -1.8
NCCCCCOCCCCCN | -7
CCOC(=O)C(C)Sc1ncnc2nc[nH]c12 (stereo not given) | -3.15
O=C1NN2CCCN=C2c2ncccc21 | 8.1
O=[N+]([O-])c1cccc(S(=O)(=O)SSS(=O)(=O)c2cccc([N+](=O)[O-])c2)c1 | 55.9
CC(=O)OC1CC2CCCCC2CC1[N+](C)(C)C (stereo not given) | 13.8
CC(C)(C)c1cc(/C=C/c2cc(/C=C/c3cc(C(C)(C)C)c(O)c(C(C)(C)C)c3)c([N+](=O)[O-])cc2[N+](=O)[O-])cc(C(C)(C)C)c1O | 1.85
CN(C)C(=O)C(c1ccccc1)P(=O)(c1ccccc1)c1ccccc1 (stereo not given) | -0.9
C=CC1=C(C)C2=NC1=CC1=NC(=CC3=C(C)C4=C(O)C(C(=O)OC)C(=C5NC(=C2)C(C)C5CCC(=O)OC/C=C(\C)CCCC(C)CCCC(C)CCCC(C)C)C4=N3)C(CC)=C1C (stereo not given) | -49.8
O=C(c1ccccc1)C(O)(c1ccccc1)C(c1ccccc1)c1ccccc1 (stereo not given) | 16.9
Cn1c(=O)ccc2c(=O)c3c(ccc4ccccc43)oc21 | -28.1
C/C(=N\Nc1ccc([N+](=O)[O-])cn1)c1ccccn1 | 25.4
CC(=O)[O-].O=S(=O)(Nc1ncccn1)c1ccc(N=Cc2ccccc2O)cc1.O=S(=O)(Nc1ncccn1)c1ccc(N=Cc2ccccc2O)cc1.[Cu+2] | -17.4
COC(=O)C(=O)OC | -11.3
CCOc1nc(C)cc(C(=O)OC)c1C#N | 19.6
CN=S(=O)(OCCCCOS(=O)(=NC)c1ccc(C)cc1)c1ccc(C)cc1 (stereo not given) | -26.4
CC(C(O)C(F)(F)F)[N+](=O)[O-] (stereo not given) | 8.65
Cc1cnc(SC(C)(C)C)c(C)c1 | -8.55
Cc1nc(-c2ccccc2)ncc1C(O)CN1CCOCC1 (stereo not given) | 17.4
N#CC(C#N)=C1CCNCC1 | -6.3
CCOC(=O)OC1C(OC)OC2COC(c3ccccc3)OC2C1OC(=O)OCC (stereo not given) | -20
CC1(C)NC(=O)C(NC(=O)C(CC(=O)OCc2ccccc2)NC(=O)OCc2ccccc2)CCCCNC(=O)CCNC1=O (stereo not given) (Cbz-D(OBn)K[Aib][βAla]; lactam 2-C; configuration not given here) | -7.95
CC(=O)C(c1ccccc1)N(CCO)Cc1ccccc1 (stereo not given) | -5.9
O=C1CCCC2=C1CC1=C(CCCC1=O)N2c1ccccc1 | 8.7
S=c1[nH]c2ccccc2n2cccc12 | 27.4
CN(c1ccccc1)c1nc(=[N+](C)C)ss1 | 17
O=C(OCc1ccc([N+](=O)[O-])cc1)N1c2ccccc2[C@@]23O[C@]24CCC[C@H]3C#C/C=C\C#C[C@H]14 | 2.45
CCN(CC)CCN(CC)CCN(CC)CC | -1.75
CC(=O)Nc1cc(N)cc(C(=O)O)c1 | 9.15
Cc1ncc([N+](=O)[O-])n1CC[N+](C)([O-])CCCCn1ccnc1[N+](=O)[O-] (stereo not given) | 20.6
Cc1cc[n+](CCc2c[nH]c3ccccc23)cc1C | 11.9
CN(C)B(B(N(C)C)N(C)C)N(C)C | 35.6
CC(=O)Nc1cc2c(s1)CCC1CC(=O)NN=C21 (stereo not given) | -31.8
COc1cccc(C2OC(N)=C(O)C2=O)c1 (stereo not given) | 3.6
